# system-tested: human MMP-17 (Homo sapiens, UniProt Q9ULZ9)
# Sequence (Q9ULZ9 126-300 limits assumed): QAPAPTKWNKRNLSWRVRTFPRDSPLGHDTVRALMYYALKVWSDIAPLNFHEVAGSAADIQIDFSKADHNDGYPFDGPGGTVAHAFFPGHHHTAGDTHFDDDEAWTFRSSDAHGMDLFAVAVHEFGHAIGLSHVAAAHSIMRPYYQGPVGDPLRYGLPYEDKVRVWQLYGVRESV
# assay-notes: MMP-17 inhibition test
# Format: biochemical
# test-conditions: read-out: Inhibitory activity (IC50, nM) MMP-17
measure: IC50

(Q) Which IC50 is listed for Cc1cccn(CC2(c3ccc(F)c(F)c3)NC(=O)NC2=O)c1=O (single isomer, unassigned; (+)) ?
(A) > 10000 nM

---

# assay-notes: Solubility test in organic solvents (propylene glycol, butylene glycol)
# Assay type: physicochemical
# test-conditions: organic solvent or mixture, thermodynamic from solid, BG, 20 times amount of the test compound, visual observation after 24 hours at room temperature; read-out: Solubility in butylene glycol (BG), 20 times amount
measure: solubility at 24 h

(Q) Which solubility at 24 h is listed for Cc1cccn(CC2(c3ccc(F)c(F)c3)NC(=O)NC2=O)c1=O (racemic) ?
(A) < 50 mg/mL

---

# system-tested: human MMP-3 (Homo sapiens)
# Construct: purchased Calbiochem 444217
# Sequence (P08254 100-272 limits assumed): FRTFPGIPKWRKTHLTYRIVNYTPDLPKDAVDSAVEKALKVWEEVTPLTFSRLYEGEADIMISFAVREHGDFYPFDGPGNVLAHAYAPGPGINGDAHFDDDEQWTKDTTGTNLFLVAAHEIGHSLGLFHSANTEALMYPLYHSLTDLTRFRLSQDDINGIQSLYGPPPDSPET
# assay-notes: MMP-3 inhibition test
# Type: biochemical
# test-conditions: read-out: Inhibitory activity (IC50, nM) MMP-3
measure: IC50

(Q) Which IC50 is listed for Cc1cccn(CC2(c3ccc(F)c(F)c3)NC(=O)NC2=O)c1=O (single isomer, unassigned; (+)) ?
(A) > 10000 nM

---

# system-tested: human MMP-9 (Homo sapiens, UniProt P14780)
# Construct: purchased Calbiochem 444231
# Sequence (P14780 107-707 limits assumed): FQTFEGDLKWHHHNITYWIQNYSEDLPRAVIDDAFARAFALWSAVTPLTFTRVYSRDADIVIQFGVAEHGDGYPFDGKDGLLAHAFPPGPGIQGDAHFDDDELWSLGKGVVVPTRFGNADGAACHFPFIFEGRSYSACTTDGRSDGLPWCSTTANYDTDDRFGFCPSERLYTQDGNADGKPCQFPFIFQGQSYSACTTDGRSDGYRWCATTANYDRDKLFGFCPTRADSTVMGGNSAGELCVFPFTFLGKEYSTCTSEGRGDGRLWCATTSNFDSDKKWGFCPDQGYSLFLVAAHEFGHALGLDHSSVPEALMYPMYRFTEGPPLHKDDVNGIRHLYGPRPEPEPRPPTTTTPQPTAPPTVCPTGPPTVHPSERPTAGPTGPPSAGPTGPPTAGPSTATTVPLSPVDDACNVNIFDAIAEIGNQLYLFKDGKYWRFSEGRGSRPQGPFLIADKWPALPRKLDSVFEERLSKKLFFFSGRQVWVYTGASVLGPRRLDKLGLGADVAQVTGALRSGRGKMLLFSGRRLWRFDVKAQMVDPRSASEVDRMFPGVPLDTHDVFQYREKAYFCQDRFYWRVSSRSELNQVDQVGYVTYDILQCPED
# assay-notes: MMP-9 inhibition test
# Format: biochemical
# test-conditions: read-out: Inhibitory activity (IC50, nM) MMP-9
measure: IC50

(Q) Which IC50 is listed for Cc1cccn(CC2(c3ccc(F)c(F)c3)NC(=O)NC2=O)c1=O (single isomer, unassigned; (+)) ?
(A) > 10000 nM

---

# system-tested: human MMP-8 (Homo sapiens)
# Construct: purchased Calbiochem 444229
# Sequence (P22894 101-467): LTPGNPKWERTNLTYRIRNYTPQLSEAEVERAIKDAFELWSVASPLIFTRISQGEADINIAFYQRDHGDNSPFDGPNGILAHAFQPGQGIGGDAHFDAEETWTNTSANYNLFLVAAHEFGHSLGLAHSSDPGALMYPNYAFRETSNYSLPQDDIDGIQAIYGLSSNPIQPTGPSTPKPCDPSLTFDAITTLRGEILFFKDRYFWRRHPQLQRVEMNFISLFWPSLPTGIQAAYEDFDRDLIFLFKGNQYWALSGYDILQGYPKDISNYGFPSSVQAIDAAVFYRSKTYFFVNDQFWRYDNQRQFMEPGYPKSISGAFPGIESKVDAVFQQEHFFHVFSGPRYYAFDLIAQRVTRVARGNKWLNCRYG
# assay-notes: MMP-8 inhibition test
# Format: biochemical
# test-conditions: read-out: Inhibitory activity (IC50, nM) MMP-8
measure: IC50

(Q) Which IC50 is listed for Cc1cccn(CC2(c3ccc(F)c(F)c3)NC(=O)NC2=O)c1=O (single isomer, unassigned; (+)) ?
(A) > 10000 nM
